Experiment: gradient 5% acetonitrile 3 min, to 50% in 2 min, to 85% in 15 min, held 3 min, 100 µL/min
Details: column: Zorbax Extend-C18 2.1 x 50 mm; eluents: water / acetonitrile, 0.1% formic acid
Reported RP-LC retention time values are given for each entry in this list.
Provide only the numeric value, understood in s.

Look over these answered cases.
# compound, unit-name, RP-LC retention time
rows = [
    ("O=C(Nc1ccc(-n2cnnn2)cc1)c1csc(Nc2ccccc2)n1", "s", 777),
    ("COc1ccccc1-c1noc(C2CCCN2C(=O)Nc2ccccc2C(F)(F)F)n1 (stereo not given)", "s", 933),
    ("Cc1ccc(N2CCN(C(=O)C3CCCN(c4cnc5nccnc5c4)C3)CC2)cc1 (stereo not given)", "s", 754),
    ("Cc1ccc(C)c(S(=O)(=O)N2CCC(C)(C(=O)NCc3ccccc3C)CC2)c1", "s", 1050),
    ("CC1(C(=O)NCc2ccc(F)cc2)CCCN(C(=O)Nc2ccccc2C(F)(F)F)C1 (stereo not given)", "s", 949),
    ("CCOc1ccc(NC(=O)Cc2c(C)nn(-c3nc(C)cs3)c2C)cc1", "s", 974),
]

// RP-LC retention time lookup, compound = "Cc1ccc(NC(=O)N2CCC(CCNC(=O)C3(c4ccccc4)CC3)CC2)cc1" , result: 923

Form: compound = "C=CCN1C(=O)COc2ccc(-c3csc(NC(=O)COC)n3)cc21" ; RP-LC retention time = 785

In plain terms, "CNC(=O)c1nc(C(C)(C)NC(=O)c2ccco2)nc2c1OCO2" has a documented RP-LC retention time of 623

Value of measured RP-LC retention time for the entry CC(C)(Oc1ccc(Cl)cc1)C(=O)NC1CCCCC1N1C(=O)CSC1=O (stereo not given) : 972

Sure, the documented RP-LC retention time for "COc1ccc(-c2ccc(=O)n(Cc3nc(-c4ccccc4)no3)n2)cc1OC" is 900

Record summary for "Cc1cc(=O)n(CC(=O)Nc2cc(F)cc(F)c2)c(N2CCCC2)n1" : reported RP-LC retention time = 670

Briefly, RP-LC retention time measured for COCCOC1CCOC2(CCN(S(=O)(=O)c3cccc(OC)c3)CC2)C1 (stereo not given) : 818

Entry "Cc1oc(-c2ccccc2)nc1Cn1nnc(C(=O)Nc2cc(F)ccc2F)c1C" ; RP-LC retention time = 1220

Input "COc1ccc(NC(=O)NCC2CCOCC2)c(C)c1" . Output RP-LC retention time: 657

The compound "CC1(C)CCC[C@@](C)([C@H]2CC[C@]3(C)[C@@H]2[C@H](O)C[C@@H]2[C@@]4(C)CC[C@H](O)C(C)(C)[C@@H]4[C@@H](O)C[C@]23C)O1" showed RP-LC retention time equal to 1150

Looking up "CCn1ccc2sc(C)c(C(=O)NCc3cc(C)ccc3C)c2c1=O" , I see its RP-LC retention time listed as 959

Record "CCOc1ccc(CNC(=O)C2CCN(c3cnc4nccnc4c3)CC2)cc1" . Reported RP-LC retention time: 698

Entry "Cc1ccc(-c2nc3nc(C)cc(N(CCO)Cc4ccccc4)n3n2)cc1" — recorded RP-LC retention time = 815

Lab note: "CCn1ccc(C(=O)Nc2ccccc2C#N)n1" gave RP-LC retention time of 744

###

Assay: gradient 5% acetonitrile 3 min, to 50% in 2 min, to 85% in 15 min, held 3 min, 100 µL/min
Conditions: column: Zorbax Extend-C18 2.1 x 50 mm; eluents: water / acetonitrile, 0.1% formic acid
Param threshold (600 s) applies to RP-LC retention time; output label 1 when value >= threshold, label 0 when value < threshold.

# compound, category
measured = [
    ("COCCCNC(=O)COc1ccccc1-c1nnc(-c2ccccc2)o1", "label 1"),
    ("CCOC(=O)c1c(C)c(CCC(=O)NCCN2CCCCC2)c(C)n1C", "label 0"),
    ("NNC(=O)c1nnsc1-c1csnn1", "label 1"),
    ("O=C(CC1(O)C(=O)Nc2c(Cl)cc(Cl)cc21)c1cccc2ccccc12 (stereo unspecified)", "label 1"),
]

Exercise: Is RP-LC retention time at least 600 s? Consider "O=C(NCCc1cnc[nH]1)c1ccc2nc(CCc3ccccc3)oc2c1"
Solution: label 1
